- System: T1, HLA-B*08:01 (human)
- T1 construct: Recombinant MHC class I molecule without the test peptide; the peptide is the other partner
- Procedure summary: REVEAL MHC-peptide binding assay, recombinant HLA-B*08:01
# In Vitro Score listing for each entry below

Known In Vitro Score results, listed for orientation:
FWVARGRKK (synthetic 9-mer; the entry already carries the mutation) [FWVARGRKK (SEQ ID NO: 48)]	0 % of positive control peptide
FIIFWVLRG (synthetic 9-mer; the entry already carries the mutation) [FIIFWVLRG (SEQ ID NO: 32)]	0.2 % of positive control peptide
WVQRGAKKL (synthetic 9-mer; the entry already carries the mutations) [WVQRGAKKL (SEQ ID NO: 84)]	11.4 % of positive control peptide

Please look at the following binder next.
Challenge: State the recorded In Vitro Score for this entry: FWVQRGNKK (synthetic 9-mer; the entry already carries the mutations) [FWVQRGNKK (SEQ ID NO: 87)]
Response given: 0 % of positive control peptide
